B1: library; numbered along this chain (parent)
chain: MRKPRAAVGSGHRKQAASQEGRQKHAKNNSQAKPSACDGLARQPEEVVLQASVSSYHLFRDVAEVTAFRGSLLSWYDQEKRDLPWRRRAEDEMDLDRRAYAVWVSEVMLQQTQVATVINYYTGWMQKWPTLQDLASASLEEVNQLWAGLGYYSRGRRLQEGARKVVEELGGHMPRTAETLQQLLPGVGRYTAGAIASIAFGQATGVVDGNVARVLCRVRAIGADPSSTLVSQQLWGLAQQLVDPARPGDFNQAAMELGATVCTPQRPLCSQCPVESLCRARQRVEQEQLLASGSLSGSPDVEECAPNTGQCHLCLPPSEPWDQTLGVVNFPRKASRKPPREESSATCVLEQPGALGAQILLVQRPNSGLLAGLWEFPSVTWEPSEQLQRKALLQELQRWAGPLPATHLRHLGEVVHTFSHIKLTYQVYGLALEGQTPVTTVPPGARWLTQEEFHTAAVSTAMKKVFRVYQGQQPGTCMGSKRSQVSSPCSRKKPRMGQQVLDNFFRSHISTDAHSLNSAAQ

- Variants of: B1
- Procedure Summary: 8OG:A repair function score (normalized; synonymous = 0, nonsense = -1) (normalized log-likelihood score); higher = more repair activity (WT-like);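 further: cells sorted at 72 h after reporter transfection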
- Test Conditions: with 8OG:A DNA repair reporter (GFP) in HEK-293 MUTYH KO cells
# label = bin(measured 8OG:A repair function score), where bins are bucket A: < -0.08; bucket B: ≥ -0.08 and < -0.008; bucket C: ≥ -0.008

[[record]]
mutant_designation = "T191D"
assigned_class = "bucket A"

[[record]]
mutant_designation = "S343W"
assigned_class = "bucket B"

[[record]]
mutant_designation = "Y76F"
assigned_class = "bucket B"

[[record]]
mutant_designation = "G201Q"
assigned_class = "bucket C"

[[record]]
mutant_designation = "S510V"
assigned_class = "bucket B"

[[record]]
mutant_designation = "P365H"
assigned_class = "bucket B"

[[record]]
mutant_designation = "E168Q"
assigned_class = "bucket C"

[[record]]
mutant_designation = "A400I"
assigned_class = "bucket A"

[[record]]
mutant_designation = "M462S"
assigned_class = "bucket B"

[[record]]
mutant_designation = "T439G"
assigned_class = "bucket C"

[[record]]
mutant_designation = "R98E"
assigned_class = "bucket A"

[[record]]
mutant_designation = "E319W"
assigned_class = "bucket B"

[[record]]
mutant_designation = "G293T"
assigned_class = "bucket B"

[[record]]
mutant_designation = "E413I"
assigned_class = "bucket C"

[[record]]
mutant_designation = "P437I"
assigned_class = "bucket A"

[[record]]
mutant_designation = "L373W"
assigned_class = "bucket A"

[[record]]
mutant_designation = "R69I"
assigned_class = "bucket A"

[[record]]
mutant_designation = "G309A"
assigned_class = "bucket B"

[[record]]
mutant_designation = "H407A"
assigned_class = "bucket C"

[[record]]
mutant_designation = "R398Q"
assigned_class = "bucket A"

[[record]]
mutant_designation = "R506D"
assigned_class = "bucket C"

[[record]]
mutant_designation = "P488T"
assigned_class = "bucket C"

